System: Hepatocyte
Test: Hepatoprotective activity in mouse hepatocytes assessed protection against D-galactosamine/TNFalpha-induced cell death at 50 uM administered before 30 mins of TNFalpha challenge measured after 18 hrs
Type: functional
attributeMeasured: Activity (%)
Report the figure in % without appending any unit label.

compound	Activity, %
CC(C)=CCC[C@](C)(O)[C@H]1CC[C@]2(C)[C@@H]1[C@H](O)C[C@@H]1[C@@]3(C)CC[C@H](O)C(C)(C)[C@@H]3[C@@H](O[C@@H]3O[C@H](CO)[C@@H](O)[C@H](O)[C@H]3O)C[C@]12C [GINSENOSIDE RH1]	11.7

Would you kindly look at the next entry?
Ask: Fill in Activity for CC(C)(O)[C@@H]1CC[C@@](C)([C@H]2CC[C@]3(C)[C@@H]2[C@H](O)C[C@@H]2[C@@]4(C)CC[C@H](O)C(C)(C)[C@@H]4[C@@H](O)C[C@]23C)O1 [PROTOPANAXATRIOL OXIDE II] tested with Hepatocyte.
Result: 17.9
